Where these numbers come from: paper PMC6273715

TEST_SYSTEM: AChE (Electrophorus electricus, UniProt O42275)
Sequence (O42275 24-633): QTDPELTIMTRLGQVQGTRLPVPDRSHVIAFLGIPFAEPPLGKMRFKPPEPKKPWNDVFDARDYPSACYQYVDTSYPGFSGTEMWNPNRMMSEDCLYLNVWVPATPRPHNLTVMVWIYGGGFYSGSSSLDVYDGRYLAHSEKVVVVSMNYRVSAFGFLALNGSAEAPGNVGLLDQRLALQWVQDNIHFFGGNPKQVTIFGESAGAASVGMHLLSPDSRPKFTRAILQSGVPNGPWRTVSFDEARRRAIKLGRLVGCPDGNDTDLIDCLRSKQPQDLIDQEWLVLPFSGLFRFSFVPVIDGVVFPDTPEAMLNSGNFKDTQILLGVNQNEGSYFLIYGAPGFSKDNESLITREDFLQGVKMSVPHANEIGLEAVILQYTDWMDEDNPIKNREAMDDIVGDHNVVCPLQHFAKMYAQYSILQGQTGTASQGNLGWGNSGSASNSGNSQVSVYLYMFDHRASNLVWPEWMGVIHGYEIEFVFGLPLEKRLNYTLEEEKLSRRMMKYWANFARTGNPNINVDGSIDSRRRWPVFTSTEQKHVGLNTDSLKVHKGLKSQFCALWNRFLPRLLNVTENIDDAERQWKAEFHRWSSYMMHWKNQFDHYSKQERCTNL
pIC50: −log10 of the molar value.
Measured pIC50, listed per entry.
PROPERTY: pIC50

INSERT INTO assay_data (input_smiles, test_system, recorded_value) VALUES
  ('S=C(NN=Cc1ccc(-c2ccccc2)cc1)Nc1ccc2c(c1)OCO2', 'AChE (Electrophorus electricus, UniProt O42275)', '< 3.67'),
  ('S=C(NN=Cc1ccc(Cl)cc1)Nc1ccc2c(c1)OCO2', 'AChE (Electrophorus electricus, UniProt O42275)', '< 3.62'),
  ('N#Cc1ccc(C=NNC(=S)Nc2ccc3c(c2)OCO3)cc1', 'AChE (Electrophorus electricus, UniProt O42275)', '< 3.67'),
  ('O=[N+]([O-])c1ccc(C=NNC(=S)Nc2ccc3c(c2)OCO3)cc1', 'AChE (Electrophorus electricus, UniProt O42275)', '< 3.63'),
  ('S=C(NN=Cc1ccccc1)Nc1ccc2c(c1)OCO2', 'AChE (Electrophorus electricus, UniProt O42275)', '< 3.57');

----------
Tested on: C6 cells
ASSAY_NOTES: DNA synthesis inhibition (BrdU ELISA), C6
Assay type: cell-based, rat
CONDITION_NOTES: C6, compound at its IC50, 24 h
Method: The immunostaining procedure was carried out with specific anti-BrdU antibodies in the S-phase of the cell cycle. DNA synthesis inhibitory effects of all compounds were evaluated for 24 h. A549 and C6 cell lines were incubated with three different concentrations of the compounds that were determined according to their IC50 values. Cisplatin was used as a positive control. Analysis of DNA synthesis was measured by a Cell Proliferation ELISA, BrdU (colorimetric) kit (Roche, Mannheim, Germany). […]
DNA synthesis inhibition percent reference
PROPERTY: DNA synthesis inhibition percent (%)

INSERT INTO measurements (compound, recorded_value) VALUES
  ('O=[N+]([O-])c1ccc(C=NNC(=S)Nc2ccc3c(c2)OCO3)cc1', 63.34),
  ('N#Cc1ccc(C=NNC(=S)Nc2ccc3c(c2)OCO3)cc1', 54.99),
  ('S=C(NN=Cc1ccc(-c2ccccc2)cc1)Nc1ccc2c(c1)OCO2', 62.98),
  ('N.N.[Cl][Pt][Cl] [Cisplatin, reference compound]', 53.95),
  ('S=C(N/N=C/c1cc2c(cc1Br)OCO2)Nc1ccc2c(c1)OCO2', 53.96),
  ('S=C(NN=Cc1ccc(Cl)c(Cl)c1)Nc1ccc2c(c1)OCO2', 37.71);

----------
Recorded below: pIC50, system AChE (Electrophorus electricus, UniProt O42275).
pIC50: −log10 of the molar value.
PROPERTY: pIC50

INSERT INTO results (compound, recorded_value) VALUES
  ('Fc1ccc(C=NNC(=S)Nc2ccc3c(c2)OCO3)cc1 [Compound 6]', '< 3.60'),
  ('CN(C)c1ccc(C=NNC(=S)Nc2ccc3c(c2)OCO3)cc1 [Compound 4]', '< 3.63'),
  ('S=C(NN=Cc1ccc(Br)cc1)Nc1ccc2c(c1)OCO2 [Compound 8]', '< 3.67');

----------
System: C6 rat glioma cells
ASSAY_NOTES: MTT cytotoxicity assay, C6
Assay type: cell-based
CONDITION_NOTES: Rattus norvegicus, C6; MTT, 24 h; read-out: IC50 C6 Cell Line
Quick reference for IC50 among some molecules
PROPERTY: IC50

INSERT INTO assay_data (molecule, recorded_value) VALUES
  ('Fc1ccc(C=NNC(=S)Nc2ccc3c(c2)OCO3)cc1 [Compound 6]', '> 158 µM'),
  ('CN(C)c1ccc(C=NNC(=S)Nc2ccc3c(c2)OCO3)cc1 [Compound 4]', '> 146 µM'),
  ('S=C(NN=Cc1ccc(Br)cc1)Nc1ccc2c(c1)OCO2 [Compound 8]', '> 132 µM'),
  ('S=C(NN=Cc1ccc(Cl)cc1)Nc1ccc2c(c1)OCO2 [Compound 7]', '> 150 µM'),
  ('S=C(NN=Cc1ccccc1)Nc1ccc2c(c1)OCO2 [Compound 1]', '> 167 µM');
